- Tested on: DoHH2 Cells (wildtype for EZH2, MEF2B and MLL2)
- procedure-details: Cell viability of lymphoma cell lines, DoHH-2
- Format: cell-based
- Set-up: concentration or dose not given beside the values
- condition-label: Table 5
Each entry below lists one item and its recorded Effect on Cell Viability (% survival) DoHH2 Cells value.
outcome-measure: Effect on Cell Viability (% survival) DoHH2 Cells (%)

>  <compound>
CC(=O)c1cc(-c2ccc(Cl)cc2)nc2ccccc12

>  <number>
100

$$$$
>  <compound>
O=C(CBr)c1cc(-c2ccc(Cl)cc2)nc2c(-c3ccccc3)cccc12

>  <number>
20

$$$$
>  <compound>
OC(CBr)c1cc(-c2ccccc2)nc2c(Cl)cc(Cl)cc12 (stereo not shown)

>  <number>
100

$$$$
>  <compound>
OC(c1cc(-c2cccc(Cl)c2)nc2ccccc12)C1CCCCN1 (stereo not shown)

>  <number>
17

$$$$
>  <compound>
Cc1c(Cl)ccc2c(C(O)CN(C)C)cc(-c3ccc(Cl)cc3)nc12 (stereo not shown)

>  <number>
100

$$$$
>  <compound>
CC(O)c1cc(-c2ccc(Cl)cc2)nc2ccccc12 (stereo not shown)

>  <number>
100

$$$$
>  <compound>
OC(c1cc(-c2ccccc2)nc2c1ccc1ccccc12)C1CCCCN1 (stereo not shown)

>  <number>
10

$$$$

* * *

- Test system: WSU-DLCL2 Cells (EZH2 mutation Y641F)
- procedure-details: Cell viability of lymphoma cell lines, WSU-DLCL2
- Format: cell-based, human
- Set-up: concentration or dose not given beside the values
- condition-label: Table 5
outcome-measure: Effect on Cell Viability (% survival) WSU-DLCL2 Cells (%)

>  <compound>
CCCN(CCC)CC(O)c1cc(-c2ccc(Cl)cc2)nc2c(C)c(Cl)ccc12 (stereo not shown)

>  <number>
90

$$$$
>  <compound>
OC(CBr)c1cc(-c2ccc(Cl)cc2)nc2c(-c3ccccc3)cccc12 (stereo not shown)

>  <number>
90

$$$$
>  <compound>
OC(c1cc(-c2cccc(Cl)c2)nc2ccccc12)C1CCCCN1 (stereo not shown)

>  <number>
10

$$$$
>  <compound>
CC(=O)c1cc(-c2ccc(Cl)c(Cl)c2)nc2c(Cl)cc(Cl)cc12

>  <number>
90

$$$$
>  <compound>
O=C(CBr)c1cc(-c2ccc(Cl)cc2)nc2cc(Cl)ccc12

>  <number>
40

$$$$
>  <compound>
CC(O)c1cc(-c2ccccc2)nc2ccccc12 (stereo not shown)

>  <number>
90

$$$$
>  <compound>
O=C(CBr)c1cc(-c2ccc(Cl)cc2)nc2c(-c3ccccc3)cccc12

>  <number>
17

$$$$

* * *

- Tested on: SU-DHL-9 (MLL2 homozygous indel mutant) cell line
- procedure-details: alamarBlue cell proliferation assay, SU-DHL-9 cell line
- Assay type: cell-based, human
- condition-label: Homo sapiens; Table 4, scaffold B; 10 μM, 48 hours, normalized to carrier-treated control; SU-DHL-9; read-out: % Cell Proliferation
Each entry below lists one item and its recorded activity at 10 µM value.
outcome-measure: activity at 10 µM (%)

>  <molecule>
O=C1c2ccccc2C(=O)c2c(NC(=O)C(Cl)CCl)cccc21 (centres unmarked) [Compound 3]

>  <unit-abbrev>
%

>  <qualifier>
<

>  <number>
10

$$$$
>  <molecule>
O=C1c2ccccc2-c2c(NC(=O)C(Cl)Cl)cccc21 [Compound 9]

>  <unit-abbrev>
%

>  <qualifier>
=

>  <number>
117

$$$$
>  <molecule>
CC(=O)NC(CC(=O)Nc1cccc2c1C(=O)c1ccccc1-2)C(C)=O (centres unmarked) [Compound 23]

>  <unit-abbrev>
%

>  <qualifier>
=

>  <number>
114

$$$$
>  <molecule>
CC(=O)Nc1cccc2c1C(=O)c1ccccc1C2=O [Compound 24]

>  <unit-abbrev>
%

>  <qualifier>
=

>  <number>
107

$$$$
>  <molecule>
O=C1c2ccccc2-c2cccc(NC(=O)C(Cl)Cl)c21 [Compound 22]

>  <unit-abbrev>
%

>  <qualifier>
=

>  <number>
86

$$$$

* * *

- Tested on: WSU-DLCL2 Cells (EZH2 mutation Y641F)
- procedure-details: Cell viability of lymphoma cell lines, WSU-DLCL2
- Format: cell-based, human
- Design: concentration or dose not given beside the values
- condition-label: Table 5
Each entry below lists one item and its recorded Effect on Cell Viability (% survival) WSU-DLCL2 Cells value.
outcome-measure: Effect on Cell Viability (% survival) WSU-DLCL2 Cells (%)

>  <compound>
CC(O)c1cc(-c2ccc(Cl)cc2)nc2ccccc12 (stereo not drawn) [Compound 29]

>  <unit-abbrev>
%

>  <number>
80

$$$$
>  <compound>
OC(c1cc(-c2ccc(Cl)cc2)nc2ccccc12)C1CCCCN1 (stereo not drawn) [Compound 40]

>  <unit-abbrev>
%

>  <number>
50

$$$$
>  <compound>
OC(c1cc(-c2ccccc2)nc2c1ccc1ccccc12)C1CCCCN1 (stereo not drawn) [Compound 44]

>  <unit-abbrev>
%

>  <number>
10

$$$$
>  <compound>
OC(c1cc(-c2ccc(Cl)cc2Cl)nc2cc(Cl)ccc12)C1CCCCN1 (stereo not drawn) [Compound 39]

>  <unit-abbrev>
%

>  <number>
20

$$$$
>  <compound>
O=C(CBr)c1cc(-c2ccc(Cl)cc2)nc2ccccc12 [Compound 27]

>  <unit-abbrev>
%

>  <number>
40

$$$$
>  <compound>
OC(c1cc(-c2ccccc2)nc2cc(Cl)ccc12)C1CCCCN1 (stereo not drawn) [Compound 43]

>  <unit-abbrev>
%

>  <number>
10

$$$$
>  <compound>
CC(=O)c1cc(-c2ccc(Cl)cc2)nc2ccccc12 [Compound 28]

>  <unit-abbrev>
%

>  <number>
100

$$$$
>  <compound>
Cc1c(Cl)ccc2c(C(O)CN(C)C)cc(-c3ccc(Cl)cc3)nc12 (stereo not drawn) [Compound 47]

>  <unit-abbrev>
%

>  <number>
100

$$$$
>  <compound>
OC(CBr)c1cc(-c2ccccc2)nc2ccccc12 (stereo not drawn) [Compound 25]

>  <unit-abbrev>
%

>  <number>
60

$$$$

* * *

- Tested on: WSU-DLCL2 Cells (EZH2 mutation Y641F)
- procedure-details: Cell viability of lymphoma cell lines, WSU-DLCL2
- Type: cell-based, human
- Parameters: concentration or dose not given beside the values
- condition-label: Table 5
# label = Fulfilled if Effect on Cell Viability (% survival) WSU-DLCL2 Cells >= 80% else Not fulfilled

>  <compound>
OC(CBr)c1cc(-c2ccc(Cl)cc2)nc2cc(Cl)ccc12 (stereo not drawn) [Compound 31]

>  <label-value>
Fulfilled

$$$$
>  <compound>
O=C(c1cc(-c2ccc(Cl)c(Cl)c2)nc2c(Cl)cc(Cl)cc12)C1NN1 [Compound 33]

>  <label-value>
Fulfilled

$$$$
>  <compound>
Cc1c(Cl)ccc2c(C(=O)CNCc3ccccc3)cc(-c3ccc(Cl)cc3)nc12 [Compound 49]

>  <label-value>
Not fulfilled

$$$$
>  <compound>
OC(CBr)c1cc(-c2ccccc2)nc2c(Cl)cc(Cl)cc12 (stereo not drawn) [Compound 34]

>  <label-value>
Fulfilled

$$$$
>  <compound>
OC(c1cc(-c2ccccc2)nc2c(Cl)cc(Cl)cc12)C1CCCCN1 (stereo not drawn) [Compound 42]

>  <label-value>
Not fulfilled

$$$$
>  <compound>
Cc1c(Cl)ccc2c(C(=O)NN)cc(-c3ccc(Cl)cc3)nc12 [Compound 48]

>  <label-value>
Not fulfilled

$$$$

* * *

- Tested on: DoHH2 Cells (wildtype for EZH2, MEF2B and MLL2)
- procedure-details: Cell viability of lymphoma cell lines, DoHH-2
- Type: cell-based
- Parameters: concentration or dose not given beside the values
- condition-label: Table 5
outcome-measure: Effect on Cell Viability (% survival) DoHH2 Cells (%)

>  <molecule>
OC(c1cc(-c2ccc(Cl)cc2Cl)nc2cc(Cl)ccc12)C1CCCCN1 (stereo not drawn) [Compound 39]

>  <unit-abbrev>
%

>  <number>
60

$$$$
>  <molecule>
O=C(c1cc(-c2ccc(Cl)c(Cl)c2)nc2c(Cl)cc(Cl)cc12)C1NN1 [Compound 33]

>  <unit-abbrev>
%

>  <number>
100

$$$$
>  <molecule>
OC(c1cc(-c2ccccc2)nc2cc(Cl)ccc12)C1CCCCN1 (stereo not drawn) [Compound 43]

>  <unit-abbrev>
%

>  <number>
40

$$$$
>  <molecule>
O=C(CBr)c1cc(-c2ccc(Cl)cc2)nc2ccccc12 [Compound 27]

>  <unit-abbrev>
%

>  <number>
90

$$$$
>  <molecule>
OC(CBr)c1cc(-c2ccccc2)nc2ccccc12 (stereo not drawn) [Compound 25]

>  <unit-abbrev>
%

>  <number>
100

$$$$
>  <molecule>
OC(CBr)c1cc(-c2ccc(Cl)cc2)nc2cc(Cl)ccc12 (stereo not drawn) [Compound 31]

>  <unit-abbrev>
%

>  <number>
100

$$$$
>  <molecule>
Cc1c(Cl)ccc2c(C(=O)NN)cc(-c3ccc(Cl)cc3)nc12 [Compound 48]

>  <unit-abbrev>
%

>  <number>
90

$$$$
>  <molecule>
OC(c1cc(-c2ccc(Cl)cc2)nc2cc(Cl)ccc12)N1CCCCC1 (stereo not drawn) [Compound 38]

>  <unit-abbrev>
%

>  <number>
100

$$$$
>  <molecule>
O=C(Cl)c1cc(-c2ccc(Cl)cc2)nc2c(-c3ccccc3)cccc12 [Compound 37]

>  <unit-abbrev>
%

>  <number>
100

$$$$

Where do these numbers come from? They come from patent US9552457B2.
